folding stability dG for assorted variants
B1: HEEH_KT_rd6_3632 (parent)
chain: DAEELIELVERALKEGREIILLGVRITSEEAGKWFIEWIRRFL

variants of: B1; test: folding stability dG (cDNA display proteolysis); higher = more stable; details: PBS, room temperature
// return numeric value only (unit: kcal/mol, not printed)

Illustrative cases are given below, each with its answer.
- K33T: 3.56
- E30F: 3.76
- W34Y: 3.43
- E4A: 3.96
- E29W: 4.1
- R40I: 3.77
- A2V: 4.05
- R25G: 3.32

Fill in reported folding stability dG for this entry: "E4S"
3.89

Give recorded folding stability dG. "T27A"
3.94

Read off the recorded folding stability dG for "R11Y"
3.15

Retrieve folding stability dG measured for "A12F" and print it.
3.42

Complete the entry with folding stability dG for "I36V"
3.36

Quickly give me recorded folding stability dG for "G16F"
3.97

Provide one value: measured folding stability dG of "K14R"
3.86

Quote folding stability dG reported for "W38G" please.
2.34

Specify measured folding stability dG for "I20L" .
3.35

Give folding stability dG for the following variant: "I19E"
2.63

Supply reported folding stability dG belonging to this variant: "D1N"
3.96

// fetch folding stability dG given entry "G32R"
3.72

Respond only with folding stability dG recorded for "K33A"
3.77
